Experimental Protocol: Acute toxicity in ip dosed albino rat administered twice daily for 14 days
Assay type: organism-based
Test Parameters: in vivo, time 14 day
Can you tell me LD50 at 336 h for the items I'm about to list?
Reply numerically in mg/kg, unit not repeated.

Quick check: LD50 at 336 h of "C[C@]12CCC(=O)C[C@@H]1CC[C@@H]1[C@@H]2CC[C@]2(C)[C@@H](O)CC[C@@H]12" ?
3410

Then "CCOC1(OCC)NC(c2ccccc2)=C2C[C@H]3[C@@H]4CC[C@H]5C[C@@H](O)CC[C@]5(C)[C@H]4CC[C@]3(C)C2=C1C#N" ?
4900

Then "C[C@]12CC[C@H](O)C[C@@H]1CC[C@@H]1[C@@H]2CC[C@]2(C)c3c(c(-c4ccccc4)[nH]c(=O)c3C#N)C[C@@H]12" ?
4920

Then "CCOc1nc(-c2ccccc2)c2c(c1C#N)[C@@]1(C)CC[C@H]3[C@@H](CC[C@H]4C[C@@H](O)CC[C@@]43C)[C@@H]1C2" ?
4890

* * *

Can you tell me Ratio for the items I'm about to list?
Species on record: Rattus norvegicus
Experimental Protocol: Ratio of anti-anabolic activity against albino rat assessed as reduction in mass of levator ani-muscle to anti-androgenic activity against albino rat assessed as mass gain of prostate gland
Type: functional
# output: bare number, no unit

Quick check: Ratio of "C[C@]12CC[C@H](O)C[C@@H]1CC[C@@H]1[C@@H]2CC[C@]2(C)c3c(C#N)c(S)nc(-c4ccc(Cl)cc4)c3C[C@@H]12" ?
1.39

Then "CCOc1nc(-c2ccccc2)c2c(c1C#N)[C@@]1(C)CC[C@H]3[C@@H](CC[C@H]4C[C@@H](O)CC[C@@]43C)[C@@H]1C2" ?
1.54

Then C[C@]12CC[C@H]3[C@@H](CCC4=CC(=O)CC[C@@]43C)[C@@H]1CC[C@@H]2O [TESTOSTERONE] ?
0.27

* * *

Can you tell me pIC50 for the items I'm about to list?
System: MCF7
Experimental Protocol: Antiproliferative activity against human MCF7 cells assessed as reduction in cell growth incubated for 48 hrs by MTT assay
Assay type: functional, cell-based
Test Parameters: MCF7, 48 h
Friendly reminder that pIC50 comes from taking -log10 of the concentration in mol/L.

Tell me reported pIC50 for "C[C@]12CC[C@H]3[C@@H](CC=C4C[C@@H](O)CC[C@@]43C)[C@@H]1CC[C@@H]2c1cc(-c2cccnc2)c(C#N)c(N)n1" , tested with MCF7.
4.52

Then "COc1ccc(-c2cc([C@H]3CC[C@H]4[C@@H]5CC=C6C[C@@H](O)CC[C@]6(C)[C@H]5CC[C@]34C)nc(N)c2C#N)cc1" ?
4.00

Then "COc1ccc(-c2cc([C@H]3CC[C@H]4[C@@H]5CC=C6C[C@@H](O)CC[C@]6(C)[C@H]5CC[C@]34C)nc(N)c2C#N)cc1O" ?
4.77

Then "C[C@]12CC[C@H]3[C@@H](CC=C4C[C@@H](O)CC[C@@]43C)[C@@H]1CC[C@@H]2c1cc(-c2ccccc2Br)c(C#N)c(N)n1" ?
4.47

Then "C[C@]12CC[C@H]3[C@@H](CC=C4C[C@@H](O)CC[C@@]43C)[C@@H]1CC[C@@H]2c1cc(-c2ccc(OCc3ccccc3)cc2)c(C#N)c(N)n1" ?
4.72

Then "C[C@]12CC[C@H]3[C@@H](CC=C4C[C@@H](O)CC[C@@]43C)[C@@H]1CC[C@@H]2c1cc(-c2cccc(Br)c2)c(C#N)c(N)n1" ?
4.54

Then "C[C@]12CC[C@H]3[C@@H](CC=C4C[C@@H](O)CC[C@@]43C)[C@@H]1CC[C@@H]2c1cc(-c2ccc(OCc3ccccc3)c(OCc3ccccc3)c2OCc2ccccc2)c(C#N)c(N)n1" ?
3.98

Then "C[C@]12CC[C@H]3[C@@H](CC=C4C[C@@H](O)CC[C@@]43C)[C@@H]1CC[C@@H]2c1cc(-c2ccncc2)c(C#N)c(N)n1" ?
4.32

Then "C[C@]12CC[C@H]3[C@@H](CC=C4C[C@@H](O)CC[C@@]43C)[C@@H]1CC[C@@H]2c1cc(-c2cccc(OCc3ccccc3)c2)c(C#N)c(N)n1" ?
4.39

Then "CCOc1ccc(-c2cc([C@H]3CC[C@H]4[C@@H]5CC=C6C[C@@H](O)CC[C@]6(C)[C@H]5CC[C@]34C)nc(N)c2C#N)cc1" ?
4.51

Then "C[C@]12CC[C@H]3[C@@H](CC=C4C[C@@H](O)CC[C@@]43C)[C@@H]1CC[C@@H]2c1cc(-c2ccccc2)c(C#N)c(N)n1" ?
4.81

Then "COc1ccc(-c2cc([C@H]3CC[C@H]4[C@@H]5CC=C6C[C@@H](O)CC[C@]6(C)[C@H]5CC[C@]34C)nc(N)c2C#N)cc1OC" ?
3.97

Then "C[C@]12CC[C@H]3[C@@H](CC=C4C[C@@H](O)CC[C@@]43C)[C@@H]1CC[C@@H]2c1cc(-c2ccco2)c(C#N)c(N)n1" ?
4.73

Then "C[C@]12CC[C@H]3[C@@H](CC=C4C[C@@H](O)CC[C@@]43C)[C@@H]1CC[C@@H]2c1cc(-c2ccc(Br)cc2)c(C#N)c(N)n1" ?
4.92

Then "C[C@]12CC[C@H]3[C@@H](CC=C4C[C@@H](O)CC[C@@]43C)[C@@H]1CC[C@@H]2c1cc(-c2cccc(O)c2)c(C#N)c(N)n1" ?
5.20

Then "O=c1[nH]cc(F)c(=O)[nH]1" ?
4.59
